Each entry below lists one item and its recorded log10 vapour pressure (mmHg) value.

| MOLECULE | log10 vapour pressure (mmHg) |
| --- | --- |
| O=C1c2ccccc2C(=O)N1SC(Cl)(Cl)Cl | -6.8 |
| CCCCC(C)(C)C | 1.53 |
| O=CCCl | 1.81 |
| CC(CCl)OC(C)CCl (stereo not drawn) | -0.252 |
| CC1=CC=CC1 | 2.09 |
| CCC | 3.85 |
| O=C1CCCO1 | -0.347 |
| COP(=S)(OC)Oc1cc(Cl)c(Cl)cc1Cl | -4.12 |
| CC(=O)CC(=O)Nc1ccccc1 | -4.28 |
| N#CCNCC#N | -2.47 |
| O=Cc1ccc(O)c([N+](=O)[O-])c1 | -3.05 |
| CCCCCCCCCCCCCCCCCCCBr | -5.65 |
| O=C(O)CBr | -0.926 |
| C=CC(=C)C | 2.74 |
| Brc1ccsc1 | 1.22 |
| CC(C)=O | 2.36 |
| COC(=O)c1ccc(C(=O)OC)cc1 | -2 |
| Cc1c[nH]c2ccccc12 | -2.26 |
